experiment: In vitro metabolism by rat tissue homogenate 9000×g supernatants (HPLC); format: in vitro ADME; details: 167 μM substrate plus cofactor solution, 37EC, 10 minutes; FIG. 1
recordedEndpoint: metabolism by rat liver homogenate 9000×g supernatants

[[record]]
compoundsmiles = "NC(=NO)c1ccc(OCCCOc2ccc(C(N)=NO)cc2)cc1.O=C(O)/C=C\\C(=O)O.O=C(O)/C=C\\C(=O)O"
result = "metabolized similarly"

[[record]]
compoundsmiles = "COc1cc(C(N)=NO)ccc1OCCCOc1ccc(C(N)=NO)cc1OC.O=C(O)/C=C\\C(=O)O.O=C(O)/C=C\\C(=O)O"
result = "metabolized similarly"

[[record]]
compoundsmiles = "NC(=NO)c1ccc(OCCCCOc2ccc(C(N)=NO)cc2)cc1.O=C(O)/C=C\\C(=O)O.O=C(O)/C=C\\C(=O)O"
result = "metabolized similarly"

